experiment: Cytotoxicity against human TZM cells expressing GFP assessed as reduction in cell viability after 72 hrs by XTT assay; assay type: cell-based
MEASUREMENT_KIND: CC50 at 72 h

{"SMILES_ENTRY": "Cc1ccc(N(C)C(=O)[C@H](Cc2ccccc2)NC(=O)Cn2cnc3c2c(=O)n(C)c(=O)n3C)cc1", "READING": "> 50 µM"}
{"SMILES_ENTRY": "CCN(C(=O)[C@H](Cc1ccccc1)NC(=O)Cn1cnc2c1c(=O)n(C)c(=O)n2C)c1ccccc1", "READING": "> 50 µM"}
{"SMILES_ENTRY": "CN(C(=O)[C@H](Cc1ccccc1)NC(=O)Cn1cnc2c1c(=O)n(C)c(=O)n2C)c1cccc(Cl)c1", "READING": "> 50 µM"}
{"SMILES_ENTRY": "COc1ccc2[nH]cc(CC(=O)N[C@@H](Cc3ccccc3)C(=O)N(C)c3cccc(F)c3)c2c1", "READING": "> 50 µM"}
{"SMILES_ENTRY": "COc1ccc2[nH]cc(CC(=O)N[C@@H](Cc3ccccc3)C(=O)N(C)c3ccc(C)cc3)c2c1", "READING": "> 50 µM"}
{"SMILES_ENTRY": "CN(C(=O)[C@H](Cc1ccccc1)NC(=O)Cn1cnc2c1c(=O)n(C)c(=O)n2C)c1ccccc1", "READING": "> 50 µM"}
{"SMILES_ENTRY": "COc1ccc2[nH]cc(CC(=O)N[C@@H](Cc3ccccc3)C(=O)N(C)c3ccccc3)c2c1", "READING": "48 µM"}
{"SMILES_ENTRY": "CN(C(=O)[C@H](Cc1ccccc1)NC(=O)Cn1cnc2c1c(=O)n(C)c(=O)n2C)c1ccc(F)cc1", "READING": "> 50 µM"}
{"SMILES_ENTRY": "CN(C(=O)[C@H](Cc1ccccc1)NC(=O)Cc1c[nH]c2ccc(O)cc12)c1cccc(Br)c1", "READING": "> 100 µM"}
{"SMILES_ENTRY": "CN(C(=O)[C@H](Cc1ccccc1)NC(=O)Cc1c[nH]c2ccc(O)cc12)c1cccc(C(F)(F)F)c1", "READING": "65 µM"}
{"SMILES_ENTRY": "CN(C(=O)[C@H](Cc1ccccc1)NC(=O)Cc1c[nH]c2ccc(O)cc12)c1ccc(F)cc1", "READING": "> 50 µM"}
{"SMILES_ENTRY": "CN(C(=O)[C@H](Cc1ccccc1)NC(=O)Cn1cnc2c1c(=O)n(C)c(=O)n2C)c1ccc(Cl)cc1", "READING": "> 50 µM"}
{"SMILES_ENTRY": "CN(C(=O)[C@H](Cc1ccccc1)NC(=O)Cc1c[nH]c2ccc(O)cc12)c1cccc(Cl)c1", "READING": "> 100 µM"}
